# Target desc: mAb 19B10
# Test name: competitive ELISA, inhibition of mAb 19B10 binding to plate-adsorbed peptide SEQ ID NO:89
# Conditions used: as the positions were defined
Measured attribute: IC50

Query string: Kindly indicate its recorded IC50. Item: Ac-DVPDYA-NH2 [Ac-Asp-Val-Pro-Asp-Tyr-Ala-NH2]
Result string: 30 nM

---

Give IC-50 for every item shown.
# Test system: Staphylococcus aureus (ATCC 29213)
# Test name: microbe, parasite or virus in culture
# Conditions used: Tables 3 and 4
Give bare numbers, in µg/mL.

Below, each entry is followed by its recorded IC-50 result.
Ac-RRWWCH-NH2 [RRWWCH] = 6.2
Ac-FRWWHR-NH2 [FRWWHR] = 18
Ac-FRWLLF-NH2 [FRWLLF] = 11
Ac-RRWWCS-NH2 [RRWWCS] = 5.9
Ac-FRWWHW-NH2 [FRWWHW] = 23
Ac-RRWWRI-NH2 [RRWWRI] = 12
Ac-FRWWHK-NH2 [FRWWHK] = 30
Ac-FRWWHI-NH2 [FRWWHI] = 21

Dear reader, for each entry below, please note its IC-50.
1. Ac-FRWLLL-NH2 [FRWLLL]
2. Ac-FRWWHL-NH2 [FRWWHL]
3. Ac-FRWLLC-NH2 [FRWLLC]
4. Ac-RRWWCY-NH2 [RRWWCY]
5. Ac-RRWWCT-NH2 [RRWWCT]
6. Ac-RRWWRL-NH2 [RRWWRL]

Result string:
1. 18
2. 9.3
3. 15
4. 5.4
5. 7.9
6. 12

Dear reader, for each entry below, please note its IC-50.
1. Ac-FRWLLR-NH2 [FRWLLR]
2. Ac-RRWWRC-NH2 [RRWWRC]
3. Ac-RRWWRA-NH2 [RRWWRA]
4. Ac-FRWWHF-NH2 [FRWWHF]
5. Ac-RRWWCA-NH2 [RRWWCA]

Result string:
1. 13
2. 8.2
3. 14
4. 16
5. 8.4

Hey, just so you know, these numbers are from patent US5504190A.
